- test-description: Primary qHTS for delayed death inhibitors of the malarial parasite plastid, 48 hour incubation
- conditions-used: P. falciparum luciferase growth in erythrocytes; series mostly up to 28.7 µM
Hit rate of the full screen: of about 310,000 compounds, about 18,000 (5.8%) were called active. Inconclusive results (about 22%) are left out. Calls follow the shape of the dose curve; as a rule, active = well fitted inhibition curve with a large enough effect; inconclusive = small, poorly fitted or top-dose-only effect, or another doubt; inactive = no such curve, though single readings can be large or run the other way. Many of the other results were omitted from the sample, so actives are more common in it than they were.
Possible outcomes: yes (active), no (inactive)

CCOc1ccc(C(=O)Nc2ccc(S(=O)(=O)Nc3cc(C)on3)cc2)cc1 | no
CC1(C)Cc2c(sc(NC(=O)C(=O)N3CCOCC3)c2C#N)CO1 | no
O=C(CSc1ccc(-c2ccc(Br)cc2)nn1)NCC1CCCO1 (stereo not given) | no
CC(C)=CCCC1(C)C=Cc2c(ccc3c2[nH]c2cc(O)c(C)cc23)O1 (stereo not given) | yes
CC(C)OC(=O)CN1C(=O)C(=O)c2ccccc21 | yes
N#Cc1cc([N+](=O)[O-])ccc1NCC1CCCO1 (stereo not given) | no
COc1ccc(CCN2CC(C(=O)NCCN3CCNC3=O)CCC2=O)cc1 (stereo not given) | no
CCN(Cc1ccccc1)S(=O)(=O)c1cc2c3c(c1)CCN3C(=O)CC2 | no
CC(=O)O[C@H]1CC[C@@]2(C)[C@@H](CC[C@@H]3[C@@H]2CC[C@]2(C)[C@@H](C(C)(C)O)C[C@@H]32)C1 | no
OC(CNCC1CCCO1)Cn1c2ccc(Br)cc2c2cc(Br)ccc21 (stereo not given) | yes

----------
- test-description: Primary qHTS for delayed death inhibitors of the malarial parasite plastid, 48 hour incubation
- conditions-used: P. falciparum luciferase growth in erythrocytes; series mostly up to 28.7 µM
Hit rate of the full screen: of about 310,000 compounds, about 18,000 (5.8%) were called active. About 22% were inconclusive and are not listed. Calls come from the whole dose curve; as a rule, active = well fitted inhibition curve with a large enough effect; inconclusive = small, poorly fitted or top-dose-only effect, or another doubt; inactive = no such curve, though single readings can be large or run the other way. The list comes from a sample in which actives are over-represented; it also holds close analogues and randomly drawn compounds.
Possible outcomes: true = active, false = inactive

CC(=O)Nc1ccc(CN2CCC(Oc3ccc(C(=O)N4CCCC4)cc3)CC2)cc1 | false
O=C(COc1ccccc1)Nc1cc2c3c(c1)CC(=O)N3CCC2 | false
COc1ccc(OC)c(C(=O)c2ccc(Cl)cc2)c1 | false
C/C(=N\NC(=O)Cc1ccccc1[N+](=O)[O-])c1cccnc1 | false
COc1ccc(O)c(C(=O)c2cnc3onc(C(C)C)c3c2)c1 | true
Cn1ncc2c(N3CCCCC3)nc(NCCCO)nc21 | false
O=C(c1ccc(OC2CCN(Cc3ccccn3)CC2)cc1)N1CCCCCC1 | false
CCOc1ccc(CNC(=O)CCC(=O)N2CCSc3ccccc32)cc1 | false
CC(Oc1ccccc1)C(=O)Nc1c2c(nn1-c1ccccc1)CS(=O)C2 (stereo unspecified) | false
Cc1cccc(NS(=O)(=O)c2ccc([N+](=O)[O-])cc2)n1 | false
COc1ccc(NCCc2ccccn2)cc1 | false

----------
- test-description: Primary qHTS for delayed death inhibitors of the malarial parasite plastid, 48 hour incubation
- conditions-used: P. falciparum luciferase growth in erythrocytes; series mostly up to 28.7 µM
Screen size: about 310,000 compounds; about 18,000 (5.8%) were called active. Inconclusive results (about 22%) are left out. Calls follow the shape of the dose curve; as a rule, active = well fitted inhibition curve with a large enough effect; inconclusive = small, poorly fitted or top-dose-only effect, or another doubt; inactive = no such curve, though single readings can be large or run the other way. The sample holds actives, similar compounds and a random draw of the others, so the mix is not that of the screen.
Possible outcomes: active, inactive

Cc1cc(NC(=O)CSc2nc3cc(Cl)ccc3c(=O)n2Cc2ccco2)no1 | inactive
CCOc1ccc2[nH]c(=O)c(C(c3nnnn3CCOC)N3CCOCC3)cc2c1 (stereo not given) | inactive
COc1ccc(N2CCN(C(c3cc4ccc(C)cc4[nH]c3=O)c3nnnn3C3CCCC3)CC2)cc1 (stereo not given) | active
CCc1ccc(N2CC(C(=O)N3CCCCCC3)CC2=O)cc1 (stereo not given) | inactive
COc1cc(CNCc2ccc(OC)c3ccccc23)cc(OC)c1OC | inactive
